- condition_label: 318.15 K; 101.3 kPa; Liquid; Pycnometric method
± gives the expanded uncertainty stated by the source.
Provide the recorded mass density for the entries that follow.
The reply must contain the numeric value and, after it, the unit.

For orientation, consider the following solved cases.
[
  {
    "molecule": "COCCO",
    "mass density": "945.9 ± 0.7 kg/m3"
  },
  {
    "molecule": "COCCOC",
    "mass density": "839.6 ± 1 kg/m3"
  },
  {
    "molecule": "CC(=O)c1ccccc1",
    "mass density": "1007.5 ± 0.8 kg/m3"
  },
  {
    "molecule": "NC=O [formamide]",
    "mass density": "1111.1 ± 2.6 kg/m3"
  }
]

Dear colleague, could you send me mass density for each of the items below? Thanks.
1. CC#N
2. C[S+](C)[O-] [dimethyl sulfoxide]

Result:
755 ± 0.7 kg/m3
1076.9 ± 2.5 kg/m3

====

Provide the recorded mass density for the entries that follow.
- condition_label: 308.15 K; 101.3 kPa; Liquid; Pycnometric method
One number for each entry, in kg/m3.

For orientation, consider the following solved cases.
[
  {
    "compound": "C[S+](C)[O-] [dimethyl sulfoxide]",
    "mass density (kg/m3)": 1085.9
  },
  {
    "compound": "COCCOC [1,2-dimethoxyethane]",
    "mass density (kg/m3)": 850.7
  },
  {
    "compound": "NC=O [formamide]",
    "mass density (kg/m3)": 1120.5
  }
]

Dear colleague, could you send me mass density for each of the items below? Thanks.
1. COCCO [2-methoxyethan-1-ol]
2. CC(=O)c1ccccc1 [acetophenone]
3. CC#N [acetonitrile]

Result:
1: 951.5; 2: 1014.8; 3: 766.3

====

Provide the recorded viscosity for the entries that follow.
- condition_label: 308.15 K; 101.3 kPa; Liquid; Capillary tube (Ostwald / Ubbelohde) method
Numbers only, in mPa·s.

For orientation, consider the following solved cases.
[
  {
    "compound": "COCCO [2-methoxyethan-1-ol]",
    "readout_units": "mPa·s",
    "numeric_readout": 1.257
  },
  {
    "compound": "CC#N [acetonitrile]",
    "readout_units": "mPa·s",
    "numeric_readout": 0.313
  }
]

Dear colleague, could you send me viscosity for each of the items below? Thanks.
1. COCCOC [1,2-dimethoxyethane]
2. C[S+](C)[O-] [dimethyl sulfoxide]
3. CC(=O)c1ccccc1 [acetophenone]
4. NC=O [formamide]

Result:
1: 0.366; 2: 1.568; 3: 1.412; 4: 2.542

====

- condition_label: 298.15 K; 100 kPa; Liquid; Linear variable-path acoustic interferometer
observation_type: speed of sound (m/s)
Give bare numbers, in m/s.

For orientation, consider the following solved cases.
[
  {
    "molecule": "COCCO [2-methoxyethan-1-ol]",
    "speed of sound [m/s]": 1339.4
  },
  {
    "molecule": "C[S+](C)[O-] [dimethyl sulfoxide]",
    "speed of sound [m/s]": 1493
  },
  {
    "molecule": "CC(=O)c1ccccc1 [acetophenone]",
    "speed of sound [m/s]": 1296.4
  },
  {
    "molecule": "NC=O [formamide]",
    "speed of sound [m/s]": 1591.3
  },
  {
    "molecule": "COCCOC [1,2-dimethoxyethane]",
    "speed of sound [m/s]": 1146.2
  }
]

Attention now turns to another entry.
Query: Give the measured speed of sound of CC#N [acetonitrile] .
Result: 1260.2

Each recorded value in this set is attributed to the NIST ThermoML archive (doi:10.1021/je700026d).
